As a worked illustration, we turn to pIC50 data collected for human mGlu2 (Homo sapiens, UniProt Q14416).
Expect pIC50 as a plain number equal to -log10 of the molar concentration.

# input Give its pIC50 value. Item: O=C1NCc2c1cc(-c1ccc(F)cc1F)cc2-c1cccnc1N1CCCC1
# output 6.28

# input Give its pIC50 value. Item: O=C1NCc2c1cc(-c1ccc(F)cc1F)cc2-c1ccc(F)cc1F
# output 5.68

----------
Biological target: human mGlu3 (Homo sapiens, UniProt Q14832)
Construct: expressed in transfected cells; host or cells: HEK-293 stably co-expressing GIRK channels
Sequence (Q14832 23-879): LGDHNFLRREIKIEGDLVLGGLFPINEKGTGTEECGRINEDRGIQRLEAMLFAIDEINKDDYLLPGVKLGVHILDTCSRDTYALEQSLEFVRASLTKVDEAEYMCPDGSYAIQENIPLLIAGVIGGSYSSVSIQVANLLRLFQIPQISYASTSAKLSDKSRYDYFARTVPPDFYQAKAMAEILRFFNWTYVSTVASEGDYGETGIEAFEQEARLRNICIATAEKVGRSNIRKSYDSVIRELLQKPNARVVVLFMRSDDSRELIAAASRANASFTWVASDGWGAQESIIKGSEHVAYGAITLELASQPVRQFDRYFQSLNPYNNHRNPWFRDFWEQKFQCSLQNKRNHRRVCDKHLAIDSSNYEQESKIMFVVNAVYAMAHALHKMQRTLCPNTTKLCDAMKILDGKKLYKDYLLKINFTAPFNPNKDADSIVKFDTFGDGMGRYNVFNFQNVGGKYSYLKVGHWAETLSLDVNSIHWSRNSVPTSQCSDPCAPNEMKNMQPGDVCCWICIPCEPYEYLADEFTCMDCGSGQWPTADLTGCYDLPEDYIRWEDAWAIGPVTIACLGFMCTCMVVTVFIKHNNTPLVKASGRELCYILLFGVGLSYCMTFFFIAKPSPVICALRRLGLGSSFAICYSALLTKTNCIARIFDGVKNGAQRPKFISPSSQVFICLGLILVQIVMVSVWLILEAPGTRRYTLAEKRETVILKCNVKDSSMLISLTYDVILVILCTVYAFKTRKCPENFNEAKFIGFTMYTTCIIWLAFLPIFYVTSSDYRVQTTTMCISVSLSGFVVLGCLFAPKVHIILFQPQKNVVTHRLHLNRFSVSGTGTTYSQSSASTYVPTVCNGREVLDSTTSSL
Test: mGlu GIRK cell-based thallium flux assay, human mGlu3
Conditions: HEK-293 cells co-expressing human mGlu3 and GIRK, EC80 glutamate, single experiment
QUANTITY MEASURED: Human mGlu3 GIRK IC50 (nM)

Examples from the recorded data:
COMPOUND | Human mGlu3 GIRK IC50 (nM)
O=C1NCc2c1cc(-c1ccc(F)cc1F)cc2-c1cnn(C2CCOC2)c1 (centres unmarked) [Compound 63] | Inactive
CC(C)n1nccc1-c1cc(C2=CCC3(CC2)OCCO3)cc2c1CNC2=O [Compound 87] | Inactive
Cn1cc(-c2cc(-c3ccc(F)cc3F)cc3c2CNC3=O)cn1 [Compound 19] | Inactive
Cn1nc(C(F)(F)F)cc1-c1cc(-c2ccc(F)cc2F)cc2c1CNC2=O [Compound 78] | Inactive

# input Give its Human mGlu3 GIRK IC50 (nM) value. Item: CC(C)n1nccc1-c1cc(C2=CCOCC2)cc2c1CNC2=O [Compound 86]
# output Inactive

# input Give its Human mGlu3 GIRK IC50 (nM) value. Item: O=C1NCc2c1cc(-c1ccc(F)cc1F)cc2-c1cnco1 [Compound 6]
# output Inactive

# input Give its Human mGlu3 GIRK IC50 (nM) value. Item: O=C1NCc2c1cc(-c1ccc(F)cc1F)cc2-c1ccc[nH]c1=O [Compound 64]
# output Inactive

# input Give its Human mGlu3 GIRK IC50 (nM) value. Item: CC1(C)CN(c2cc(-c3ccc(F)cc3F)cc3c2CNC3=O)CC(C)(C)O1 [Compound A6]
# output Inactive

# input Give its Human mGlu3 GIRK IC50 (nM) value. Item: O=C1NCc2c1cc(-c1ccc(F)cc1F)cc2N1CCn2nccc21 [Compound A2]
# output Inactive

# input Give its Human mGlu3 GIRK IC50 (nM) value. Item: O=C1NCc2c1cc(-c1ccc(F)cc1F)cc2-c1cnn(C2CC2)c1 [Compound 18]
# output Inactive

# input Give its Human mGlu3 GIRK IC50 (nM) value. Item: CC(=O)Nc1ccc(-c2cc(-c3ccc(F)cc3F)cc3c2CNC3=O)cn1 [Compound 34]
# output Inactive

----------
The entries below are paired with their reported IC50.
Target: human mGlu3 (Homo sapiens, UniProt Q14832)

MOLECULE | IC50
O=C1NCc2c1cc(-c1ccc(F)cc1F)cc2-c1ccc(F)nc1F | > 10 µM

# input Please state recorded IC50 (tested on human mGlu3 (Homo sapiens, UniProt Q14832)) of O=C1NCc2c(CN3CCSCC3)cc(-c3ccc(F)cc3F)cc21
# output 4.62 µM

# input Please state recorded IC50 (tested on human mGlu3 (Homo sapiens, UniProt Q14832)) of O=C1NCc2c1cc(-c1ccc(F)cc1F)cc2N1CCOCC1
# output > 10 µM

# input Please state recorded IC50 (tested on human mGlu3 (Homo sapiens, UniProt Q14832)) of CC1(C)CCN(c2cc(-c3ccc(F)cc3F)cc3c2CNC3=O)CC1
# output > 10 µM

# input Please state recorded IC50 (tested on human mGlu3 (Homo sapiens, UniProt Q14832)) of O=C1NCc2c1cc(-c1ccc(F)cc1F)cc2-c1cccnc1N1CCCC1
# output > 10 µM

# input Please state recorded IC50 (tested on human mGlu3 (Homo sapiens, UniProt Q14832)) of COC1CCCN(c2cc(-c3ccc(F)cc3F)cc3c2CNC3=O)C1 (stereo not shown)
# output 9.87 µM

# input Please state recorded IC50 (tested on human mGlu3 (Homo sapiens, UniProt Q14832)) of O=C1NCc2c1cc(-c1ccc(F)cc1F)cc2-c1ccc2nccn2c1
# output 6.41 µM

# input Please state recorded IC50 (tested on human mGlu3 (Homo sapiens, UniProt Q14832)) of N#CC1CCCN(c2cc(-c3ccc(F)cc3F)cc3c2CNC3=O)C1 (stereo not shown)
# output > 10 µM

# input Please state recorded IC50 (tested on human mGlu3 (Homo sapiens, UniProt Q14832)) of O=C1NCc2c(CN3CCOCC3)cc(-c3ccc(F)cc3F)cc21
# output > 10 µM

# input Please state recorded IC50 (tested on human mGlu3 (Homo sapiens, UniProt Q14832)) of Cc1nn(CC(C)(C)O)c(C)c1-c1cc(-c2ccc(F)cc2F)cc2c1CNC2=O
# output > 10 µM

# input Please state recorded IC50 (tested on human mGlu3 (Homo sapiens, UniProt Q14832)) of O=C1NCc2c1cc(-c1ccc(F)cc1F)cc2-c1ccc(C2CC2)nc1
# output > 10 µM

# input Please state recorded IC50 (tested on human mGlu3 (Homo sapiens, UniProt Q14832)) of CC(C)Cn1nccc1-c1cc(-c2ccc(F)cc2F)cc2c1CNC2=O
# output > 10 µM

# input Please state recorded IC50 (tested on human mGlu3 (Homo sapiens, UniProt Q14832)) of CC(C)n1nccc1-c1cc(-c2ccc(F)cc2F)cc2c1CNC2=O
# output > 10 µM

----------
Target: human mGlu2 (Homo sapiens, UniProt Q14416)
Construct: expressed in transfected cells; host or cells: HEK-293 stably co-expressing GIRK channels
Sequence (Q14416 19-872): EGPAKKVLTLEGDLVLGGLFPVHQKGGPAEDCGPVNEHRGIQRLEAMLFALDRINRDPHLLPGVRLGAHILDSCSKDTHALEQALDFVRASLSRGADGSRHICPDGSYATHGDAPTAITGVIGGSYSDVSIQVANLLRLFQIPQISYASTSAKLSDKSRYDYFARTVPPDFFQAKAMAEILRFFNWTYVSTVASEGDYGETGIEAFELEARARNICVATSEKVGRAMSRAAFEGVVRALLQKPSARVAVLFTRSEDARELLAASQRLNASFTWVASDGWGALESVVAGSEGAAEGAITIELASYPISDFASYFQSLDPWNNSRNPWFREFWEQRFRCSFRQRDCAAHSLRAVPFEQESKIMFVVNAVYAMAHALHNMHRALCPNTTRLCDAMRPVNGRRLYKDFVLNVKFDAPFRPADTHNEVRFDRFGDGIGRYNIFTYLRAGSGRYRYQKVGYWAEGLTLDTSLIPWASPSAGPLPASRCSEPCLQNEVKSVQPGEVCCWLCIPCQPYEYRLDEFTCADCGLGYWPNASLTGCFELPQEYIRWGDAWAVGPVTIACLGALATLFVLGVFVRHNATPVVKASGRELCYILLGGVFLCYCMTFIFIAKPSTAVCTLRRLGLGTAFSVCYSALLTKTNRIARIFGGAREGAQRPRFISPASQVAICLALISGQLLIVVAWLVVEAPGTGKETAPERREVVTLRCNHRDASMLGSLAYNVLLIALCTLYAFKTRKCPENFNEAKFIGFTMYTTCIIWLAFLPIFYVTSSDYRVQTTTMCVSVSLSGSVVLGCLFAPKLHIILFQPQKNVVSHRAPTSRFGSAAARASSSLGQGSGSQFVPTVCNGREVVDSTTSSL
Test: mGlu GIRK cell-based thallium flux assay, human mGlu2
Conditions: HEK-293 cells co-expressing human mGlu2 and GIRK, EC80 glutamate, single experiment
QUANTITY MEASURED: Human mGlu2 GIRK IC50 (nM)

SUBSTANCE SMILES | SYSTEM TESTED | RESULT
O=C1NCc2c1cc(-c1ccc(F)cc1F)cc2-c1ccco1 | human mGlu2 (Homo sapiens, UniProt Q14416) | Inactive
O=C1NCc2c1cc(-c1ccc(F)cc1F)cc2-c1cnn(C2CCCCC2)c1 | human mGlu2 (Homo sapiens, UniProt Q14416) | Inactive
N#Cc1c(F)cc(-c2cc3c(c(-c4cnsc4)c2)CNC3=O)cc1F | human mGlu2 (Homo sapiens, UniProt Q14416) | Inactive
COc1cc(C#N)ccc1-c1cc2c(c(-c3cnsc3)c1)CNC2=O | human mGlu2 (Homo sapiens, UniProt Q14416) | Inactive
COc1cc(F)c(-c2cc3c(c(-c4cnsc4)c2)CNC3=O)cc1F | human mGlu2 (Homo sapiens, UniProt Q14416) | Inactive
O=C1NCc2c1cc(-c1ccc(F)cc1F)cc2-c1cc2ccccc2s1 | human mGlu2 (Homo sapiens, UniProt Q14416) | Inactive
CC(C)Oc1cc(-c2cc3c(c(-c4cnsc4)c2)CNC3=O)ccc1C#N | human mGlu2 (Homo sapiens, UniProt Q14416) | Inactive

# input Please state recorded Human mGlu2 GIRK IC50 (nM) (tested on human mGlu2 (Homo sapiens, UniProt Q14416)) of Cc1cc(-c2cc3c(c(-c4cnsc4)c2)CNC3=O)c(F)cc1C#N
# output Inactive

----------
As a worked illustration, we turn to pIC50 data collected for human mGlu2 (Homo sapiens).
Expect pIC50 as a plain number equal to -log10 of the molar concentration.

Examples from the recorded data:
MOLECULE | pIC50
CC(C)Oc1ncccc1-c1cc(-c2ccc(F)cc2F)cc2c1CNC2=O | 6.06
O=C1NCc2c(CN3CC(O)(C(F)(F)F)C3)cc(-c3ccc(F)cc3F)cc21 | 6.71
Cc1ccc(-c2cc(-c3ccc(F)cc3F)cc3c2CNC3=O)cn1 | 7.00
O=C1NCc2c1cc(-c1ccc(F)cc1F)cc2-c1cncnc1 | 6.02
O=C1NCc2c1cc(-c1ccc(F)cc1F)cc2N1C[C@H]2C[C@@H]1CO2 (racemic) | 6.51

# input Please state recorded pIC50 (tested on human mGlu2 (Homo sapiens)) of Cc1c(-c2cc(C3CCOCC3)cc3c2CNC3=O)cnn1C
# output 5.53

# input Please state recorded pIC50 (tested on human mGlu2 (Homo sapiens)) of O=C1NCc2c1cc(-c1ccc(F)cc1F)cc2N1CCS(=O)(=O)CC1
# output 5.53

# input Please state recorded pIC50 (tested on human mGlu2 (Homo sapiens)) of O=C1NCc2c1cc(-c1ccc(F)cc1F)cc2N1CCn2nccc21
# output 6.66

----------
As a worked illustration, we turn to IC50 data collected for human mGlu2 (Homo sapiens).
Number only, in nM; omit the unit.

Examples from the recorded data:
COMPOUND | IC50 (nM)
O=C1NCc2c1cc(-c1ccc(F)cc1F)cc2-c1cnn(C2CC2)c1 [Compound 18] | 291
Cc1nn(C)c(C)c1-c1cc(C2CCOCC2)cc2c1CNC2=O [Compound 98] | 985
Cc1nn(C)c(C)c1-c1cc(C2=CCOCC2)cc2c1CNC2=O [Compound 92] | 424
O=C1NCc2c(CN3CC4CCC(C3)O4)cc(-c3ccc(F)cc3F)cc21 [Compound B7] | 292
Cc1sc(C)c(-c2cc(-c3ccc(F)cc3F)cc3c2CNC3=O)c1C [Compound 20] | 5260

# input Please state recorded IC50 (tested on human mGlu2 (Homo sapiens)) of O=C1NCc2c1cc(-c1ccc(F)cc1F)cc2C1CCCCO1 (stereo not drawn) [Compound B10]
# output 329

# input Please state recorded IC50 (tested on human mGlu2 (Homo sapiens)) of O=C1NCc2c1cc(-c1ccc(F)cc1F)cc2-c1ccc[nH]c1=O [Compound 64]
# output 298

# input Please state recorded IC50 (tested on human mGlu2 (Homo sapiens)) of N#CC1CCCN(c2cc(-c3ccc(F)cc3F)cc3c2CNC3=O)C1 (stereo not drawn) [Compound A10]
# output 386
